Measured IC50 by item
biological target: human renal renin (Homo sapiens)
Sequence (P00797 67-406): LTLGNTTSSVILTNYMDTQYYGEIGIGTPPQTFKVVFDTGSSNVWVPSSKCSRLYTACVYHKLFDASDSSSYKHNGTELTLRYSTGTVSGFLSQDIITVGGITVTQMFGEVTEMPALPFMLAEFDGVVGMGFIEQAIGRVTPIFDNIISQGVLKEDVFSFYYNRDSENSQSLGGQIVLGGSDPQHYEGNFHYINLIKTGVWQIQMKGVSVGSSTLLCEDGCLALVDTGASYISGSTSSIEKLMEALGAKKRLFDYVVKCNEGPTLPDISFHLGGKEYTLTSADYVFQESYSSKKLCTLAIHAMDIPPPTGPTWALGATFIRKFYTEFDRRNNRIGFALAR
Measured endpoint: IC50 (nM)

# Molecule, Target desc, Measured endpoint, Result value
measured = [
    ("CCN1C[C@@H]([C@H](O)[C@H](CC2CCCCC2)NC(=O)[C@H](Cc2cnc[nH]2)N2C[C@H](Cc3ccccc3)N(CC(C)C)C2=O)OC1=O [Example 119]", "human renal renin (Homo sapiens)", "IC50", 150),
    ("CC(C)C[C@H](O)[C@H](O)[C@H](CC1CCCCC1)NC(=O)[C@H](Cc1c[nH]cn1)N1C[C@H](Cc2ccccc2)CC1=O [Example 122]", "human renal renin (Homo sapiens)", "IC50", 580),
    ("CC(C)C[C@H](O)[C@H](O)[C@H](CC1CCCCC1)NC(=O)[C@H](Cc1cscn1)N1CCC[C@@](Cc2ccccc2)(NS(=O)(=O)N2CCN(C)CC2)C1=O [Example 151]", "human renal renin (Homo sapiens)", "IC50", 0.32),
    ("CCCC[C@@H](C(=O)N[C@@H](CC1CCCCC1)[C@@H](O)[C@@H](O)CC(C)C)N1CCN(C(=O)N2CCN(C)CC2)[C@H](Cc2ccccc2)C1=O [Example 47]", "human renal renin (Homo sapiens)", "IC50", 81),
]
